- targetEntity: GHSR (Homo sapiens)
- Construct: purchased Promega (in-house HiBiT-GPCR construct library, NanoBRET)
- Sequence (Q92847 whole entry): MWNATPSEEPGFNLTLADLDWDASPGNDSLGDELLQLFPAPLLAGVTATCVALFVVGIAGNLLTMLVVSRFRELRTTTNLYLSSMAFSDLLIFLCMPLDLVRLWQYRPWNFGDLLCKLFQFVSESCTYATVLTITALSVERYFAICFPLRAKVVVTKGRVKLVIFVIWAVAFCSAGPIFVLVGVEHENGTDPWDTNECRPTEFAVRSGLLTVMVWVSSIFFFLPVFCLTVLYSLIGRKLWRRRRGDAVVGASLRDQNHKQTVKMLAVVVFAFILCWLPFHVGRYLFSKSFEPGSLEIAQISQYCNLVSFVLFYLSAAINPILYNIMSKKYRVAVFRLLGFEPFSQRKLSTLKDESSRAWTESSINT
- methodNotes: NanoBRET screen HiBiT-GHSR in HEK293
- Format: binding
- conditionSummary: GHSR; tracer 0.1μM
# key: entry, value: NanoBRET Fold Response

{"columns": ["molecule", "NanoBRET Fold Response"],
 "data": [
  ["Cc1cc2c(s1)Nc1ccccc1N=C2N1CCN(CCCNC(=O)CCOCCOCCOCCOCCNC(=O)CCc2ccc3n2[B-](F)(F)[N+]2=C(c4ccc[nH]4)C=CC2=C3)CC1", 0.96],
  ["COc1ccccc1N1CCN(CCCCN2C(=O)c3ccc(CNC(=O)CCOCCNC(=O)c4ccc(CNC(=O)CCc5ccc6n5[B-](F)(F)[N+]5=C(c7ccc[nH]7)C=CC5=C6)cc4)cc3C2=O)CC1", 0.86],
  ["CC(C)N(CC[C@H](c1ccccc1)c1cc(CCNC(=O)c2ccc(CNC(=O)CCc3ccc4n3[B-](F)(F)[N+]3=C(c5ccc[nH]5)C=CC3=C4)cc2)ccc1O)C(C)C", 1.00],
  ["O=C(CCc1ccc2n1[B-](F)(F)[N+]1=C(c3ccc[nH]3)C=CC1=C2)NCc1ccc(C(=O)NCCOCCC(=O)N[C@@H]2CC[C@@]3(O)[C@H]4Cc5ccc(O)c6c5[C@@]3(CCN4CC3CC3)[C@H]2O6)cc1 [Naltrexone-3-NB590]", 1.01],
  ["CC(C)N(CC[C@H](c1ccccc1)c1cc(CCNC(=O)CCOCCOCCOCCOCCNC(=O)CCc2ccc3n2[B-](F)(F)[N+]2=C(c4ccc[nH]4)C=CC2=C3)ccc1O)C(C)C", 0.95]
]}
